// data source = patent US9296725B2

- test_system: JAK2 (Homo sapiens, UniProt O60674)
- Construct: endogenous in cells
- Sequence (O60674 whole entry): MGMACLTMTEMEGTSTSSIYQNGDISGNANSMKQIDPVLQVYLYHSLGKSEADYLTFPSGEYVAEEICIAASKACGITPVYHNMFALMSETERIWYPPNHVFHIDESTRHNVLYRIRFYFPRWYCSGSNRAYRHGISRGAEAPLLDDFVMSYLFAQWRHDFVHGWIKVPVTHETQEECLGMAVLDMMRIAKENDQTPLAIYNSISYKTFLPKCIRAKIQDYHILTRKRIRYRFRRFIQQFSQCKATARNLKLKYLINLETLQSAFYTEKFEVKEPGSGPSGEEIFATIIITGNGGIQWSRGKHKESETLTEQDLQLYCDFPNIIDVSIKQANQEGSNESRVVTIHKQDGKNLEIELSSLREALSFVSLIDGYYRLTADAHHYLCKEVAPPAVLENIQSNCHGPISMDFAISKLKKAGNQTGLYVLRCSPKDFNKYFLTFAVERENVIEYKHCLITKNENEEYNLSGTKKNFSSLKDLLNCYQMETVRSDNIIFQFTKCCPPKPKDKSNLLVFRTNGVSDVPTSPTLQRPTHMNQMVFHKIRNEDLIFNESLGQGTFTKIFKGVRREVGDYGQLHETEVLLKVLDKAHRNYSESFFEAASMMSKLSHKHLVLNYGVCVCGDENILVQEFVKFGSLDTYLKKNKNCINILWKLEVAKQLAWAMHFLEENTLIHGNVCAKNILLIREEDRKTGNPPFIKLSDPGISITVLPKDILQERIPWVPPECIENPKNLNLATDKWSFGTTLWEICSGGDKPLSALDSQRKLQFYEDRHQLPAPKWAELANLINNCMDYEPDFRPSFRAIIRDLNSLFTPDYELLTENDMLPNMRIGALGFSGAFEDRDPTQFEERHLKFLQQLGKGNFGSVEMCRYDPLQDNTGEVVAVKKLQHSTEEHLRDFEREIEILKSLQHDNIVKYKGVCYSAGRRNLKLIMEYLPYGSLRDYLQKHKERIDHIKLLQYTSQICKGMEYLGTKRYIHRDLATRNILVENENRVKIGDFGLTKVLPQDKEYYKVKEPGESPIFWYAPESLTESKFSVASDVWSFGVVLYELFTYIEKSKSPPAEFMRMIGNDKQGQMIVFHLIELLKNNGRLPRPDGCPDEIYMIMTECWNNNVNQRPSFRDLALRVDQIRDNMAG
- protocol: Kinobeads assay, JAK2 (competition binding in mixed Molt4/Ramos cell lysate, dot blot detection)
- test_context: read-out: JAK2 Band (Kinobeads assay potency, IC50)
readout_name: IC50

// lookup IC50 for O=C(Cn1cc(Nc2nccc(NCc3c(F)cccc3Cl)n2)cn1)N1CCOCC1 [Example I-129] > 10 µM

// lookup IC50 for Clc1cnc(Nc2cn[nH]c2)nc1NCc1ccccc1 [Example I-201] 1 to 10 µM

// lookup IC50 for CNC(=O)Cn1cc(Nc2ncc(Cl)c(NCc3cc(F)cc(F)c3)n2)cn1 [Example I-190] 0.1 to 1 µM

// lookup IC50 for CNC(=O)Cn1cc(Nc2ncc(Cl)c(NCc3cccc(OC)c3)n2)cn1 [Example I-243] 1 to 10 µM

// lookup IC50 for COc1ccc(Cl)c(CNc2ccnc(Nc3cnn(CC(=O)NC(C)C)c3)n2)c1F [Example I-79] 1 to 10 µM

// lookup IC50 for OCCn1cc(Nc2ncc(Cl)c(NCc3cccc(C(F)F)c3)n2)cn1 [Example I-293] 0.1 to 1 µM

// lookup IC50 for CNC(=O)Cn1cc(Nc2ncc(F)c(NCc3c(F)ccc(F)c3F)n2)cn1 [Example I-410] 1 to 10 µM

// lookup IC50 for NS(=O)(=O)c1ccc(CNc2nc(Nc3cnn(CC(=O)NC4CC4)c3)ncc2Cl)cc1 [Example I-10] > 10 µM

// lookup IC50 for COc1cccc(CNc2nc(Nc3cnn(CC(=O)N(C)C)c3)ncc2Cl)c1 [Example I-244] 1 to 10 µM

// lookup IC50 for CN(C)S(=O)(=O)c1ccccc1CNc1nc(Nc2cnn(C)c2)ncc1Cl [Example I-474] 0.1 to 1 µM

// lookup IC50 for O=C(Cn1cc(Nc2ncc(F)c(NCc3c(F)cc(F)cc3F)n2)cn1)N1CCOCC1 [Example I-26] 1 to 10 µM

// lookup IC50 for CNC(=O)Cn1cc(Nc2ncc(F)c(NCc3cccc(OC(F)F)c3)n2)cn1 [Example I-408] > 10 µM

// lookup IC50 for Cc1cnc(Nc2cnn(CC(=O)NC3CC3)c2)nc1NCc1cccc(F)c1F [Example I-341] 1 to 10 µM

// lookup IC50 for CNC(=O)Cn1cc(Nc2ncc(Cl)c(NCc3ccccc3S(=O)(=O)NC)n2)cn1 [Example I-355] 0.1 to 1 µM

// lookup IC50 for CNC(=O)Cn1cc(Nc2ncc(Cl)c(NCc3c(F)cc(F)cc3F)n2)cn1 [Example I-388] 1 to 10 µM

// lookup IC50 for CC1(C)COCCN1C(=O)Cn1cc(Nc2ncc(F)c(NCc3c(F)cc(F)cc3F)n2)cn1 [Example I-309] 1 to 10 µM

// lookup IC50 for CC(C)NC(=O)Cn1cc(Nc2nccc(NCc3c(F)cccc3F)n2)cn1 [Example I-62] > 10 µM

----------
For each entry below, report its pIC50 value.
- test_system: JAK2 (Homo sapiens, UniProt O60674)
- Construct: endogenous in cells
- protocol: Kinobeads assay, JAK2 (competition binding in mixed Molt4/Ramos cell lysate, dot blot detection)
- test_context: read-out: JAK2 Band (Kinobeads assay potency, IC50)
pIC50: −log10 of the molar value.

// lookup pIC50 for Cc1cccc(F)c1CNc1ccnc(Nc2cnn(C)c2)n1 [Example I-437] 5.00 to 6.00

// lookup pIC50 for OCCn1cc(Nc2ncc(Cl)c(NCc3cc(Br)cc(F)c3F)n2)cn1 [Example I-264] 6.00 to 7.00

// lookup pIC50 for CNC(=O)Cn1cc(Nc2ncc(Cl)c(NCc3ccccc3S(=O)(=O)N(C)C)n2)cn1 [Example I-356] 6.00 to 7.00

// lookup pIC50 for CN(C)C(=O)Cn1cc(Nc2ncc(Cl)c(NCc3cccc(OCC#N)c3)n2)cn1 [Example I-365] 5.00 to 6.00

// lookup pIC50 for CC(C)NC(=O)Cn1cc(Nc2nccc(NCc3c(Cl)ccc(F)c3F)n2)cn1 [Example I-93] 5.00 to 6.00

// lookup pIC50 for Cn1cc(Nc2ncc(Cl)c(NCc3ccccc3)n2)cn1 [Example I-158] 5.00 to 6.00

// lookup pIC50 for Cc1cnc(Nc2cnn(C)c2)nc1NCc1cc(F)cc(F)c1 [Example I-343] 7.00 to 8.00

// lookup pIC50 for COc1ccc(F)c(CNc2nc(Nc3cnn(CC(=O)NC(C)C)c3)ncc2F)c1F [Example I-48] 5.00 to 6.00

// lookup pIC50 for CNC(=O)Cn1cc(Nc2ncc(Cl)c(NCc3ccccc3S(C)(=O)=O)n2)cn1 [Example I-451] 5.00 to 6.00

// lookup pIC50 for CC(C)NC(=O)Cn1cc(Nc2ncc(F)c(NCc3c(F)ccc(F)c3F)n2)cn1 [Example I-455] 5.00 to 6.00

// lookup pIC50 for NC(=O)Cn1cc(Nc2ncc(Cl)c(NCc3c(F)cc(F)cc3F)n2)cn1 [Example I-387] 5.00 to 6.00

// lookup pIC50 for OCCn1cc(Nc2ncc(F)c(NCc3c(F)ccc(F)c3F)n2)cn1 [Example I-202] 6.00 to 7.00

// lookup pIC50 for O=C(Cn1cc(Nc2nccc(NCc3c(F)cc(F)cc3F)n2)cn1)N[C@@H]1CCOC1 [Example I-137] 5.00 to 6.00

// lookup pIC50 for CC(C)NC(=O)Cn1cc(Nc2nccc(NCc3c(Cl)ccc(F)c3Cl)n2)cn1 [Example I-119] < 5.00
